TARGET: T1, Recombinant Human FGFR2 alpha (IIIc) Fc Chimera Protein, CF (R&D systems, 712-FR-050) (human, UniProt P21802 22-377)
T1 construct: bought; not shown: Fc part of the chimera
T1 sequence (P21802 22-377, change not shown): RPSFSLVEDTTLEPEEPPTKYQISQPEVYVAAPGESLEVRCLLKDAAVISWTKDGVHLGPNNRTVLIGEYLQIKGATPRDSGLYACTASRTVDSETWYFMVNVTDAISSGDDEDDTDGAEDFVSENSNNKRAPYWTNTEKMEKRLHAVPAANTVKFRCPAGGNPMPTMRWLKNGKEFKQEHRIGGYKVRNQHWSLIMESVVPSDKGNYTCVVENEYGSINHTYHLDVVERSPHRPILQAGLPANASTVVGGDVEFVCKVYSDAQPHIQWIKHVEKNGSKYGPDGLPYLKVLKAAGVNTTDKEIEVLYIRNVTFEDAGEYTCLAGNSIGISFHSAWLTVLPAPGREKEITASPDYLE
TEST_DETAILS: ELISA on plate-bound FGFR2-Fc
Method: First, 5 ng of Recombinant Human FGFR2 alpha (IIIc) Fc Chimera Protein (R&D systems, 712-FR-050) was immobilized in each well of a 96-well plate, and blocked with Pierce Protein-Free (PBS) Blocking Buffer (Thermo, 37572), and a peptide diluted with Can Get Signal Immunoreaction Enhancer Solution I (TOYOBO, NKB-101) was then added and reacted at room temperature for 3 hours. […]
Bridge positions count the residues as written; N and C are the ends. Ends that are not written are not given here. COCH2 = acetyl group that carries the bridge
Give measured ELISA luminescence signal at 10 nmol/L peptide, relative to SEQ ID NO: 47 (=1) for each item. Keep answers brief.

// solved cases for ELISA luminescence signal at 10 nmol/L peptide, relative to SEQ ID NO: 47 (=1) follow
Bench note: what ELISA luminescence signal at 10 nmol/L peptide, relative to SEQ ID NO: 47 (=1) did YCEENYLDPEQYQYFIYFK(COCH2)I (thioether 2-19 (inferred)) [cyclic peptide SEQ ID NO: 310] show?
≥ 0.7 ratio

Bench note: what ELISA luminescence signal at 10 nmol/L peptide, relative to SEQ ID NO: 47 (=1) did DCIRPYDQLQLIYQYLYQLK(COCH2)K (thioether 2-20; not fully specified; printed as D-(C)-IRPYDQLQLIYQYLYQL-(K(acetyl))-K) [cyclic peptide SEQ ID NO: 404] show?
0.1 to 0.5 ratio

Bench note: what ELISA luminescence signal at 10 nmol/L peptide, relative to SEQ ID NO: 47 (=1) did YCEENKLDPEQYQYFIYFK(COCH2)Y (thioether 2-19; not fully specified; printed as Y-(C)-EENKLDPEQYQYFIYF-(K(acetyl))-Y) [cyclic peptide SEQ ID NO: 338] show?
0.1 to 0.5 ratio

// next entry
Bench note: what ELISA luminescence signal at 10 nmol/L peptide, relative to SEQ ID NO: 47 (=1) did QCQTDHQQQLYFIYQYLQK(COCH2)I (thioether 2-19) [cyclic peptide SEQ ID NO: 110] show?
0.1 to 0.5 ratio
